Assay: Selectivity index, ratio of IC50 for cytotoxicity against human HDF cells to IC50 for cytotoxicity against human PC-3 cells
Format: toxicity, cell-based
Settings: HDF cells versus PC-3 cells, read-out: Ratio IC50
Kindly supply the reported selectivity ratio values for the records listed here.
Give a plain numeric answer without units written out.

So what does the record say about selectivity ratio for CO[C@H]1/C=C\C=C(/C)C(=O)NC2=CC(=O)C(NCc3cccc(CS(=O)(=O)N(C(C)C)C(C)C)c3)=C(C[C@@H](C)C[C@H](OC)[C@H](O)[C@@H](C)/C=C(\C)[C@@H]1OC(N)=O)C2=O ?
1.95

Could you do the same for CO[C@H]1/C=C\C=C(/C)C(=O)NC2=CC(=O)C(NCCCCO)=C(C[C@@H](C)C[C@H](OC)[C@H](O)[C@@H](C)/C=C(\C)[C@@H]1OC(N)=O)C2=O , please?
2.11

Could you do the same for CO[C@@H](C=CC=C(C)C(N)=O)[C@@H](OC(N)=O)/C(C)=C/[C@H](C)[C@@H](O)[C@H](C[C@H](C)CC1=C(NCCOCCO)C(=O)C=C(NCCOCCO)C1=O)OC , please?
2.41

Could you do the same for CO[C@H]1/C=C\C=C(/C)C(=O)NC2=CC(=O)C(NCCO)=C(C[C@@H](C)C[C@H](OC)[C@H](O)[C@@H](C)/C=C(\C)[C@@H]1OC(N)=O)C2=O , please?
2.9

Could you do the same for COc1c(O)cc2cc1C[C@@H](C)C[C@H](OC)[C@H](O)[C@@H](C)/C=C(\C)[C@H](OC(N)=O)[C@@H](OC)CC/C=C(\C)C(=O)N2 , please?
54

* * *

Kindly supply the reported selectivity ratio values for the records listed here.
Test: Selectivity index, ratio of IC50 for cytotoxicity against human HDF cells to IC50 for cytotoxicity against human PC-3 cells
Type: toxicity, cell-based
Conditions: HDF cells versus PC-3 cells, read-out: Ratio IC50

So what does the record say about selectivity ratio for CO[C@H]1/C=C\C=C(/C)C(=O)NC2=CC(=O)C(NCc3cccc(N4CCOC4=O)c3)=C(C[C@@H](C)C[C@H](OC)[C@H](O)[C@@H](C)/C=C(\C)[C@@H]1OC(N)=O)C2=O ?
3.51

Could you do the same for CO[C@H]1/C=C\C=C(/C)C(=O)NC2=CC(=O)C(NNC3=NCCN3)=C(C[C@@H](C)C[C@H](OC)[C@H](O)[C@@H](C)/C=C(\C)[C@@H]1OC(N)=O)C2=O , please?
1.26

Could you do the same for CO[C@H]1/C=C\C=C(/C)C(=O)NC2=CC(=O)C(NCCN3CCCC3=O)=C(C[C@@H](C)C[C@H](OC)[C@H](O)[C@@H](C)/C=C(\C)[C@@H]1OC(N)=O)C2=O , please?
1.57

* * *

Kindly supply the reported selectivity ratio values for the records listed here.
Assay: Selectivity index, ratio of IC50 for cytotoxicity against human HDF cells to IC50 for cytotoxicity against human PC-3 cells
Assay type: toxicity, cell-based
Settings: HDF cells versus PC-3 cells, read-out: Ratio IC50
Give a plain numeric answer without units written out.

So what does the record say about selectivity ratio for CO[C@@H](/C=C/C=C(/C)C(N)=O)[C@@H](OC(N)=O)/C(C)=C/[C@H](C)[C@@H](O)[C@H](C[C@H](C)CC1=C(NCCCCO)C(=O)C=C(NCCCCO)C1=O)OC ?
1.4

Could you do the same for COC1=C2C[C@@H](C)C[C@H](OC)[C@H](O)[C@@H](C)/C=C(\C)[C@H](OC(N)=O)[C@@H](OC)/C=C\C=C(/C)C(=O)NC(=CC1=O)C2=O , please?
2.92

Could you do the same for CO[C@H]1/C=C\C=C(/C)C(=O)NC2=CC(=O)C(NC3CCN(S(C)(=O)=O)CC3)=C(C[C@@H](C)C[C@H](OC)[C@H](O)[C@@H](C)/C=C(\C)[C@@H]1OC(N)=O)C2=O , please?
3.19

Could you do the same for CCOC(=O)C1CCC(CNC2=C3C[C@@H](C)C[C@H](OC)[C@H](O)[C@@H](C)/C=C(\C)[C@H](OC(N)=O)[C@@H](OC)/C=C\C=C(/C)C(=O)NC(=CC2=O)C3=O)CC1 (stereo not given in full) , please?
3.21

Could you do the same for C#CCNC1=C2C[C@@H](C)C[C@H](OC)[C@H](O)[C@@H](C)/C=C(\C)[C@H](OC(N)=O)[C@@H](OC)/C=C\C=C(/C)C(=O)NC(=CC1=O)C2=O , please?
2.18
